Assay: Stability assessed as rate of NADH formation in presence of eicosanoid oxido-reductase
Format: ADME
measured attribute: Stability (µM/min)

Past entries and their recorded results:
# compound, u, number
measured = [
    ("CCCCCC(O)c1ccccc1/C=C/[C@@H](O)[C@@H](O)CCCC(=O)OC (mixture of isomers)", "µM/min", 0.09),
    ("CCCCC[C@@H](O)/C=C/c1ccccc1/C=C/[C@@H](O)[C@@H](O)CCCC(=O)OC", "µM/min", 0.19),
    ("CCCCC[C@H](O)/C=C/C=C\\C=C\\C=C\\[C@@H](O)[C@@H](O)CCCC(=O)O [LIPOXIN A4]", "µM/min", 2.42),
    ("CCCCC[C@@H](O)/C=C/c1cccc(/C=C/[C@@H](O)[C@@H](O)CCCC(=O)OC)c1", "µM/min", 0.45),
    ("CCCCCC/C=C/c1ccccc1/C=C/[C@@H](O)[C@@H](O)CCCC(=O)OC", "µM/min", 0.04),
]

(I) CCCCC[C@@H](O)/C=C/C=C\C=C\C=C\[C@@H](O)[C@@H](O)CCCC(=O)O
(II) CCCCC[C@@H](O)/C=C/C=C/c1ccccc1/C=C/[C@@H](O)[C@@H](O)CCCC(=O)OC
Pick one: I or II . Which one has the lower reported Stability? Return value: the label identifying the chosen record.
II
(II: 0.14 µM/min, I: 0.21 µM/min)
